# assayTarget: GST tagged LXRalpha LBD (ligand binding domain) (Homo sapiens, UniProt Q13133)
# Construct: purchased Invitrogen pv4655
# Sequence (Q13133 209-447 limits assumed): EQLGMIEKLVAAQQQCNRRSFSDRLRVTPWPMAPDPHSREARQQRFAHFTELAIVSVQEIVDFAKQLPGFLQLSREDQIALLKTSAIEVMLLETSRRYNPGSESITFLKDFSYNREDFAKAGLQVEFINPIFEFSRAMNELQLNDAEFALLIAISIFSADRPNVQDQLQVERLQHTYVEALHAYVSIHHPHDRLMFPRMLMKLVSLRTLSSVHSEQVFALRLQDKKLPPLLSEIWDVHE
# testName: LanthaScreen TR-FRET Liver X Receptor Coactivator Assay, LXR alpha-LBD
# Format: biochemical
# assaySetup: activity at max dose (efficacy), relative to reference T0901317; read-out: LXR alpha act @ max dose (%)
Quick reference for Emax among some compounds
Write the number in % without appending the unit.

CC(C)C(O)(C(=O)N1CCC(C2CCN(c3ccc(C(=O)N4CCCC4)c(Cl)c3)CC2)CC1)C(F)(F)F (centres unmarked)    32
CCC(F)(C(=O)N1CCC(C2CCN(c3ccc(C(=O)N(C)C)c(Cl)c3)CC2)CC1)c1ccccc1 (centres unmarked)    53
COc1cccc([C@](O)(C(=O)N2CCC(C3CCN(c4ccc(C(=O)N(C)C)c(Cl)c4)CC3)CC2)C(F)(F)F)c1 (single isomer, unassigned)    21
CN(C)C(=O)c1ccc(N2CCC(C3CCN(C(=O)C(O)(C4CC4)C(F)(F)F)CC3)CC2)cc1Cl (single isomer, unassigned)    60
CN(C)C(=O)c1ccc(N2CCC(C3CCN(C(=O)C(F)(F)c4cccc(F)c4)CC3)CC2)cc1Cl    51

# input Which measured Emax value corresponds to CN(C)C(=O)c1ccc(N2CCC(C3CCN(C(=O)C(C)(C)c4ccccc4F)CC3)CC2)cc1Cl ?
# output 67

# input // Emax lookup, key: CN(C)C(=O)c1ccc(N2CCC(C3CCN(C(=O)C4(c5ccc(O)cc5)CCCC4)CC3)CC2)cc1Cl
# output 26

# input For the compound Cc1ccc(C(C)(C)C(=O)N2CCC(C3CCN(c4ccc(C(=O)N(C)C)c(Cl)c4)CC3)CC2)cc1 , what Emax is on record?
# output 31

# input What does the record list as Emax for CNC(=O)c1ccc(N2CCC(C3CCN(C(=O)[C@](O)(c4ccccc4)C(F)(F)F)CC3)CC2)cc1Cl ?
# output 33

# input Reported Emax for CC(C)C(O)(C(=O)N1CCC(C2CCN(c3ccc(C(=O)N(C)C)c(Cl)n3)CC2)CC1)C(F)(F)F (stereo in doubt) [Example B-5] : what is it?
# output 61

# input Could you share which Emax value was measured for CN(C)C(=O)c1ccc(N2CCC(C3CCN(C(=O)c4c(F)cc(F)cc4F)CC3)CC2)cc1Cl ?
# output 35

# input Using the record for CN(C)C(=O)c1ccc(N2CCC(C3CCN(C(=O)C(O)(C(C)(C)C)C(F)(F)F)CC3)CC2)cc1Cl (racemic) [Example A-4] , report its Emax.
# output 65

# input What does the data say about its Emax? Entry: CC(C)N(C)C(=O)c1ccc(N2CCC(C3CCN(C(=O)C(O)(C(C)C)C(F)(F)F)CC3)CC2)cc1Cl (centres unmarked)
# output 53

# input Look at this compound and give its reported Emax. COc1cccc(C2(C(=O)N3CCC(C4CCN(c5ccc(C(=O)N(C)C)c(Cl)c5)CC4)CC3)CCCC2)c1
# output 15

====

# assayTarget: GST tagged LXRbeta LBD (ligand binding domain) (Homo sapiens)
# Construct: purchased Invitrogen pv4658.pps
# Sequence (P55055 222-460 limits assumed): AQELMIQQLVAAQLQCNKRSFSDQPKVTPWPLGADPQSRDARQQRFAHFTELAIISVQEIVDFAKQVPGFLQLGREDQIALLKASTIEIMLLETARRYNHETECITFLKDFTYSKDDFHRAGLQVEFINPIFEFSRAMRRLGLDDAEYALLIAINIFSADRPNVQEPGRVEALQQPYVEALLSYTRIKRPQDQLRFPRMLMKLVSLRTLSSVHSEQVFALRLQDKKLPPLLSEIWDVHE
# testName: LanthaScreen TR-FRET Liver X Receptor Coactivator Assay, LXR beta-LBD
# Assay type: biochemical
# assaySetup: activity at max dose (efficacy), relative to reference T0901317; read-out: LXR beta act @ max dose (%)
Note to self: values exactly at 90% are Met. So Emax at or above 90% is Met, below is Not met.

Example entries and their recorded answers appear below.
CC(=O)Oc1ccc(C(C)(C)C(=O)N2CCC(C3CCN(c4ccc(C(=O)N(C)C)c(Cl)c4)CC3)CC2)cc1    Met
CN(CCO)C(=O)c1ccc(N2CCC(C3CCN(C(=O)[C@](O)(c4ccccc4)C(F)(F)C(F)(F)F)CC3)CC2)cc1Cl    Met
CN(C)C(=O)c1ccc(N2CCC(C3CCN(C(=O)OC(C)(C)C)CC3)CC2)cc1Cl    Met
CN(C)C(=O)c1ccc(N2CCC(C3CCN(C(=O)C(C)(c4ccccc4)C(F)(F)F)CC3)CC2)cc1Cl (stereo not drawn)    Met
COc1ccc(C2(C(=O)N3CCC(C4CCN(c5ccc(C(=O)N(C)C)c(Cl)c5)CC4)CC3)CC2)cc1    Not met
CCC1CCN(C(=O)c2ccc(N3CCC(C4CCN(C(=O)[C@](O)(c5ccccc5)C(F)(F)F)CC4)CC3)cc2Cl)C1 (stereo partly drawn)    Not met
CN(C)C(=O)c1ccc(N2CCC(C3CCN(C(=O)C(C)(O)C(F)(F)F)CC3)CC2)nc1Cl (stereo not drawn)    Met
CN(C)C(=O)c1ccc(N2CCC(C3CCN(C(=O)C(O)(CCc4ccccc4)C(F)(F)F)CC3)CC2)cc1Cl (stereo not drawn)    Not met

# evaluate next
# input In plain terms: is recorded Emax at least 90% for CN(C)C(=O)c1ccc(N2CCC(C3CCN(C(=O)C(O)(C4CCC4)C(F)(F)F)CC3)CC2)cc1Cl (stereo not drawn) ?
# output Met
